The reported measurements were obtained from paper PMC8789049.

- Target Desc: T1, YTHDF3 (UniProt Q7Z739 1-585)
- T1 sequence: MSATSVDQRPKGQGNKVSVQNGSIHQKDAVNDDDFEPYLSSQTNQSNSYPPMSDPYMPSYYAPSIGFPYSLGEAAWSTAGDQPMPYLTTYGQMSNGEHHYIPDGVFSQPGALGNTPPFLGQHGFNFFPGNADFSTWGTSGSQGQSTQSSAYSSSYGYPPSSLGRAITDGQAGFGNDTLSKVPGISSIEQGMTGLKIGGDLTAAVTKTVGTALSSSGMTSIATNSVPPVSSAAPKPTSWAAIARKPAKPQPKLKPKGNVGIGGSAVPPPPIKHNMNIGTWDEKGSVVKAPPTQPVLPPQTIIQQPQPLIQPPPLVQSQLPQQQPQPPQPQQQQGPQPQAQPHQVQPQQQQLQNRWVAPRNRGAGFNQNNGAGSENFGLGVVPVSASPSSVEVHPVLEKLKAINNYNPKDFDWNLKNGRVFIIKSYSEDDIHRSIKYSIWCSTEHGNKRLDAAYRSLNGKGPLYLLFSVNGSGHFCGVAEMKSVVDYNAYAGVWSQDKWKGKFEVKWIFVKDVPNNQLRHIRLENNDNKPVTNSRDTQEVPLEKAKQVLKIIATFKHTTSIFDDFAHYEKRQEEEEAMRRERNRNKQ
- Assay Notes: EMSA; REMSA: 6.25 nM biotin probe, 100 mM HEPES pH 7.3, 200 mM KCl, 10 mM MgCl2, 10 mM DTT, 5% glycerol, 2 ug tRNA, 20 ul, 30 min, temperature not stated; 6% native PAGE in 0.5x TBE
- Test Parameters: protein: recombinant; tags: His-tag (pET-28a(+)-TEV); label: biotin
Reported Endpoint: binding result

Reference set, count: 5
Binder	Reported Endpoint	Readout Value
CCUGUGAGGGACUGGCCACUCAGACCCACU (ssRNA, m6A in GGm6ACU) [6908-m6A]	binding result	binds
AACUCAAUGGAACUGACUGAGAUUUACCAC (ssRNA, m6A in GAm6ACU) [8953-m6A]	binding result	binds
GGAUAUUUUGAAGGACUGUCAUAUAUCUUU (ssRNA) [7301-UM]	binding result	no binding
AACUCAAUGGAACUGACUGAGAUUUACCAC (ssRNA) [8953-UM]	binding result	no binding
CCUGUGAGGGACUGGCCACUCAGACCCACU (ssRNA) [6908-UM]	binding result	no binding

Turning now to a further record.
What value of binding result has been recorded for this entry: GGAUAUUUUGAAGGACUGUCAUAUAUCUUU (ssRNA, m6A in GGm6ACU) [7301-m6A]
binds
